System: PANC-1 complex spheroid growth, percent test/control
Experiment: Anticancer human tumor PANC-1 cell line growth inhibition [Asc];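 further: spheroids exposed to agents for 7 days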
Conditions: curve of first compound; second compound 0.0949 µM
pIC50: −log10 of the molar value.
property_name: pIC50

Some compounds with known pIC50 results, for comparison:
O=C(c1ccc(F)c(F)c1Nc1ccc(I)cc1F)N1CC(O)([C@@H]2CCCCN2)C1 + CCN1C(C(=O)NC23CCC(C(=O)O)(CC2)CC3)C(c2cccc(Cl)c2F)C2(C(=O)Nc3cc(Cl)ccc32)C12CCCCC2 :: < 6.00
NC(=O)C(=Cn1cnc(-c2cc(C(F)(F)F)cc(C(F)(F)F)c2)n1)c1cncnc1 + CCN1C(C(=O)NC23CCC(C(=O)O)(CC2)CC3)C(c2cccc(Cl)c2F)C2(C(=O)Nc3cc(Cl)ccc32)C12CCCCC2 :: < 6.52
C#Cc1c(F)ccc2cc(O)cc(-c3ncc4c(N5CC6CCC(C5)N6)nc(OCC56CCCN5CC(F)C6)nc4c3F)c12 (configuration not stated) + CCN1C(C(=O)NC23CCC(C(=O)O)(CC2)CC3)C(c2cccc(Cl)c2F)C2(C(=O)Nc3cc(Cl)ccc32)C12CCCCC2 :: < 5.00
COc1c(OCCCN2CCOCC2)ccc2c3n(c(=NC(=O)c4cnc(N)nc4)nc12)CCN3 + CCN1C(C(=O)NC23CCC(C(=O)O)(CC2)CC3)C(c2cccc(Cl)c2F)C2(C(=O)Nc3cc(Cl)ccc32)C12CCCCC2 :: 6.57
C=C(F)C(=O)N1CCN(c2nc(OCC3CCCN3C)nc3c2CCN(c2cccc4cccc(Cl)c24)C3)CC1CC#N (configuration not stated) + CCN1C(C(=O)NC23CCC(C(=O)O)(CC2)CC3)C(c2cccc(Cl)c2F)C2(C(=O)Nc3cc(Cl)ccc32)C12CCCCC2 :: 5.16

Would you mind telling me what pIC50 value was observed for Cn1ncnc1[C@H]1c2n[nH]c(=O)c3cc(F)cc(c23)N[C@@H]1c1ccc(F)cc1 + CCN1C(C(=O)NC23CCC(C(=O)O)(CC2)CC3)C(c2cccc(Cl)c2F)C2(C(=O)Nc3cc(Cl)ccc32)C12CCCCC2 ?
< 7.00

Would you mind telling me what pIC50 value was observed for C=CC(=O)N1CCN(c2nc(=O)n(-c3c(C)ccnc3C(C)C)c3nc(-c4c(O)cccc4F)c(F)cc23)C(C)C1 (configuration not stated) + CCN1C(C(=O)NC23CCC(C(=O)O)(CC2)CC3)C(c2cccc(Cl)c2F)C2(C(=O)Nc3cc(Cl)ccc32)C12CCCCC2 ?
< 5.00
